Biological target: NMDA receptor (N-methyl-D-aspartate) (Rattus norvegicus, UniProt P35439)
Construct: isolated membrane material from rat cerebra
Assay: Binding of 3H-5,7-dichlorokynurenic acid (displacement from rat cerebral membranes)
Conditions: buffer pH 7.4, on ice 30 minutes
pKi: −log10 of the molar value.

molecule smiles: COC(=O)CCc1nc2c3cc(C)c(C)cc3[nH]c(=O)n2n1
pKi: 5.76
//
molecule smiles: O=C(O)CCc1nc2c3cc([N+](=O)[O-])c([N+](=O)[O-])cc3[nH]c(=O)n2n1
pKi: 6.40
//
molecule smiles: O=C(O)CCc1nc2c3ccc([N+](=O)[O-])cc3[nH]c(=O)n2n1
pKi: 6.77
//
molecule smiles: Cc1cc2[nH]c(=O)n3nc(CCC(=O)O)nc3c2cc1C
pKi: 7.00
